system: K4 kissing-loop RNA reporter; test: apparent KD of K4 kissing-loop reporter; higher = weaker reporter binding; conditions: Eterna round: R107; input ligand: tryptophan 2.4 mM
What apparent KD of K4 kissing-loop reporter was measured for each of the following?
The reply should contain only the number, in nM.

[Q] Request - read-out apparent KD of K4 kissing-loop reporter | tested on K4 kissing-loop RNA reporter | sequence AAGUCAUAUAGAAGGAGCGUGUUUUAUAAUUUAUUUUCAUGAUCGAGUGAUGUUCGAUAUACACAGGUAGGUCGCUGUAUAAUAA [hbob_SS_Arginine_B_2t140]
[A] 101

[Q] Request - read-out apparent KD of K4 kissing-loop reporter | tested on K4 kissing-loop RNA reporter | sequence UUAGAGAUCUCAGGAUAUGAGUGAUGUUGGUGUCAAGAUCUGAGAUAGAAUUCUAUCUCAGAUCAAUCAGAAGGGAGAUCUCAUU [AK2.2 Exc FMN B]
[A] 413

[Q] Request - read-out apparent KD of K4 kissing-loop reporter | tested on K4 kissing-loop RNA reporter | sequence CUGCCGUGCCAUGGGCCAGUGAUGUUGGAACGAGGACCGGUACGGCCGCCACUCGCUUAGCGUCAAAGGCGUCCCGAAUAGAAAG [theeternabot_exclusion_KL_Trp_A_14]
[A] 374

[Q] Request - read-out apparent KD of K4 kissing-loop reporter | tested on K4 kissing-loop RNA reporter | sequence AAAGUUGCAAGUGAUACCAGACGAGUGAAGGGAAGUAAUUAAUUAGGAGUGAUGUUCCGCGUCCCUUGGCAGCACUUUGUAAUUU [Exclusion Theophylline B GF 25]
[A] 115

[Q] Request - read-out apparent KD of K4 kissing-loop reporter | tested on K4 kissing-loop RNA reporter | sequence `UCUAAGGUCGAACCGGUAUGAUCACCGGAUACCAGAGGCGAAAGCCUCCCUUGGCAGCCGAGUGUAGUGAUGUUACACGGGUUCU`
[A] 166

[Q] Request - read-out apparent KD of K4 kissing-loop reporter | tested on K4 kissing-loop RNA reporter | sequence `GCCGUACGCAUGGAUACCAGUCUACAUCGCAGUGAUGUUGCGUAGUUCAGAUAGAUUGCCGACCCUUGGCAGCCAUGCGUACGGC`;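 note: bound reporter read as fluorescence of individual clusters on recovered sequencing chips by microscopy, with normalized cluster intensities fitted with a binding model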
[A] 114
